Recorded values, source ChEMBL document CHEMBL5291721.

Reported AC50 values follow for various compounds
- MEASURED TARGET: UniProtKB P07550
- Sequence (P07550 whole entry): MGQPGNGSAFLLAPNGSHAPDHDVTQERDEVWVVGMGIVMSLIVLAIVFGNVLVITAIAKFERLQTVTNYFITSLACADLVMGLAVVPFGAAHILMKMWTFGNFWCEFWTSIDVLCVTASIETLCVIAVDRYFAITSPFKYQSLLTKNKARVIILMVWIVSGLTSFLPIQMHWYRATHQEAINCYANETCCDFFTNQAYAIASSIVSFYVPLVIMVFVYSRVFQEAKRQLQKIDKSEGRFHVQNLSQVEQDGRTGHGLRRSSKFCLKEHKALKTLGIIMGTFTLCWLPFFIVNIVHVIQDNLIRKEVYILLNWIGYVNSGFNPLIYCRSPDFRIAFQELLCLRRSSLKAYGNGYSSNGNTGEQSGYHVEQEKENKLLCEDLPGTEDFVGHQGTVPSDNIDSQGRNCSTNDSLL

Look over these answered cases.
{"columns": ["COMPOUND", "TEST VALUE"],
 "data": [
  ["CCOC(=O)[N-]c1cn(N2CCOCC2)n[o+]1", "> 30 µM"],
  ["CCOC(=O)[C@H](CCc1ccccc1)N[C@@H](C)C(=O)N1C(=O)N(C)C[C@H]1C(=O)O", "> 30 µM"],
  ["CNC(C)CCC=C(C)C (stereo not drawn)", "> 30 µM"],
  ["CC(C(=O)O)c1ccc(N2Cc3ccccc3C2=O)cc1 (stereo not drawn)", "> 30 µM"],
  ["C[C@]12CC[C@H]3[C@@H](CCC4=CC(=O)CC[C@@]43C)[C@@H]1CC[C@@H]2O", "> 10 µM"],
  ["COc1ccc2c3c1O[C@H]1[C@@H](O)C=C[C@H]4[C@@H](C2)N(C)CC[C@@]341", "> 10 µM"],
  ["CN1C(C(=O)Nc2ccccn2)=C(O)c2sc(Cl)cc2S1(=O)=O", "> 30 µM"],
  ["C[C@](N)(Cc1ccc(O)c(O)c1)C(=O)O", "> 10 µM"]
]}

Query: State AC50 on UniProtKB P07550. Entry: C#C[C@]1(O)CC[C@H]2[C@@H]3CCC4=Cc5oncc5C[C@]4(C)[C@H]3CC[C@@]21C
Reply: > 10 µM

Query: State AC50 on UniProtKB P07550. Entry: O=C(O)CCCCCCNC1c2ccccc2CCc2ccccc21
Reply: > 30 µM

Query: State AC50 on UniProtKB P07550. Entry: CO[C@@H]1[C@@H](O[C@@H]2O[C@H](C)[C@@H](O[C@H]3C[C@@](C)(O)[C@@H](OC(=O)CC(C)C)[C@H](C)O3)[C@H](N(C)C)[C@H]2O)[C@@H](CC=O)C[C@@H](C)[C@@H](O)/C=C/C=C/C[C@@H](C)OC(=O)C[C@H]1OC(C)=O
Reply: > 10 µM
